ASSAY: in vivo
EXPERIMENTAL CONDITIONS: male, Sprague-Dawley, rat, iv, 0.5 mg/kg
Description: AUC (0 to t) in male Sprague-Dawley rat at 0.5 mg/kg, iv measured after 32 hrs by LC-MS/MS analysis
VALUE KIND: AUC(0-t) at 32 h (ng·h/mL)

[a] Cc1onc(-c2ccccc2OC(F)F)c1C(=O)Nc1cccc(C(F)(F)F)c1
[b] O=C(Nc1cccc(C(F)(F)F)c1)c1cn[nH]c1-c1ccccc1Cl
Of the pair a and b , name the member with the lesser recorded AUC(0-t) at 32 h. Select an item and report its label. a

====

ASSAY: in vivo
EXPERIMENTAL CONDITIONS: male, Sprague-Dawley, rat, iv, 0.5 mg/kg
Description: Cmax in male Sprague-Dawley rat at 0.5 mg/kg, iv measured after 32 hrs by LC-MS/MS analysis
VALUE KIND: Cmax at 32 h (µg/mL)

[P] O=C(Nc1cccc(C(F)(F)F)c1)c1cn[nH]c1-c1ccccc1Cl
[Q] Cc1onc(-c2ccccc2OC(F)F)c1C(=O)Nc1cccc(C(F)(F)F)c1
Of the pair P and Q , name the member with the lesser recorded Cmax at 32 h. Select an item and report its label. Q
(Q: 0.285 µg/mL, P: 1.62 µg/mL)

====

ASSAY: in vivo
EXPERIMENTAL CONDITIONS: male, Sprague-Dawley, rat, po, 5 mg/kg
Description: Oral bioavailability in male Sprague-Dawley rat at 5 mg/kg measured after 32 hrs by LC-MS/MS analysis
VALUE KIND: bioavailability at 32 h (%)

[a] Cc1onc(-c2ccccc2OC(F)F)c1C(=O)Nc1cccc(C(F)(F)F)c1
[b] O=C(Nc1cccc(C(F)(F)F)c1)c1cn[nH]c1-c1ccccc1Cl
Of the pair a and b , name the member with the lesser recorded bioavailability at 32 h. Select an item and report its label. a
(a: 7.02%, b: 68.7%)

====

ASSAY: Volume of distribution at steady state in male Sprague-Dawley rat at 0.5 mg/kg, iv measured after 32 hrs by LC-MS/MS analysis
EXPERIMENTAL CONDITIONS: in vivo
VALUE KIND: Vd at 32 h (L/kg)
Unit L/kg implied. Number only.

Record O=C(Nc1cccc(C(F)(F)F)c1)c1cn[nH]c1-c1ccccc1Cl , field Vd at 32 h: 0.53

====

ASSAY: MRT (0 to t) in male Sprague-Dawley rat at 5 mg/kg, po measured after 32 hrs by LC-MS/MS analysis
EXPERIMENTAL CONDITIONS: in vivo
VALUE KIND: MRT last at 32 h (h)

[A] O=C(Nc1cccc(C(F)(F)F)c1)c1cn[nH]c1-c1ccccc1Cl
[B] Cc1onc(-c2ccccc2OC(F)F)c1C(=O)Nc1cccc(C(F)(F)F)c1
Of the pair A and B , name the member with the lesser recorded MRT last at 32 h. Select an item and report its label. A
